target: Y4R (Homo sapiens); construct: expressed in transfected cells; host or cells: HEK293, transient; assay: IP accumulation assay, chimeric GαΔ6qi4myr, Y4R; format: cell-based; settings: 0.1 µM peptide; chimeric GαΔ6qi4myr co-transfected; transiently transfected HEK293 cells; mean of at least three independent experiments
QUANTITY: IP accumulation, x-fold of basal (mean), Y4R

AGSDPNFLRF-NH2 [FLP-1-2, C. elegans FMRFamide-like peptide, C-terminally amidated, synthesized by SPPS] | 1.28 x-fold of basal
APKPKFIRF-NH2 [FLP-5-1, C. elegans FMRFamide-like peptide, C-terminally amidated, synthesized by SPPS] | 1.38 x-fold of basal
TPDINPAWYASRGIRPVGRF-NH2 [PrRP20, human prolactin-releasing peptide, 20 residues, reference compound] | 0.80 x-fold of basal
ASPSFIRF-NH2 [FLP-4-2, C. elegans FMRFamide-like peptide, C-terminally amidated, synthesized by SPPS] | 1.45 x-fold of basal
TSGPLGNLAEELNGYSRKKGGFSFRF-NH2 [QRFP26, human pyroglutamylated RFamide peptide, 26 residues, reference compound] | 1.03 x-fold of basal
NPENDTPFGTMRF-NH2 [FLP-3-4, C. elegans FMRFamide-like peptide, C-terminally amidated, synthesized by SPPS] | 1.31 x-fold of basal

Given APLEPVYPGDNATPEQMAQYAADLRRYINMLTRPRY-NH2 [PP, human pancreatic polypeptide, reference compound] , state its recorded IP accumulation, x-fold of basal (mean), Y4R.
4.73 x-fold of basal

---

molecular target: Y1R (Homo sapiens); construct: expressed in transfected cells; host or cells: HEK293, transient; assay: IP accumulation assay, chimeric GαΔ6qi4myr, Y1R; format: cell-based; settings: 0.1 µM peptide; chimeric GαΔ6qi4myr co-transfected; transiently transfected HEK293 cells; mean of at least three independent experiments
Sequence (P25929 whole entry): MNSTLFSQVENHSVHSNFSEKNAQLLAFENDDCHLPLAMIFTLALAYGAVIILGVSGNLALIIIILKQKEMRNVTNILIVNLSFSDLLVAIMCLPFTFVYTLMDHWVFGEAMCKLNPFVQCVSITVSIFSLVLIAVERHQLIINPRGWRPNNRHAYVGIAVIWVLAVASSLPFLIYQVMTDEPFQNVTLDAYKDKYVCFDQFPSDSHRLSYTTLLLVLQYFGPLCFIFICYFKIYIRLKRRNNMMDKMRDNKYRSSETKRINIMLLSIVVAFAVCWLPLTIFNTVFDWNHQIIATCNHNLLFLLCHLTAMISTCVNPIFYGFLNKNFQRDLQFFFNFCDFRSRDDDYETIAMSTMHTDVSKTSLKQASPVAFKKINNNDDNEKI
The following substances are listed with their measured IP accumulation, x-fold of basal (mean), Y1R values.

Given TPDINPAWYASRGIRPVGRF-NH2 [PrRP20, human prolactin-releasing peptide, 20 residues, reference compound] , state its recorded IP accumulation, x-fold of basal (mean), Y1R.
0.82 x-fold of basal

Request: ASPSFIRF-NH2 [FLP-4-2, C. elegans FMRFamide-like peptide, C-terminally amidated, synthesized by SPPS]
2.37 x-fold of basal

Request: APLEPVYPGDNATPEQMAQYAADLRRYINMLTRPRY-NH2 [PP, human pancreatic polypeptide, reference compound]
17.01 x-fold of basal

Request: AGSDPNFLRF-NH2 [FLP-1-2, C. elegans FMRFamide-like peptide, C-terminally amidated, synthesized by SPPS]
1.25 x-fold of basal

Request: APKPKFIRF-NH2 [FLP-5-1, C. elegans FMRFamide-like peptide, C-terminally amidated, synthesized by SPPS]
1.02 x-fold of basal

Request: NPENDTPFGTMRF-NH2 [FLP-3-4, C. elegans FMRFamide-like peptide, C-terminally amidated, synthesized by SPPS]
1.54 x-fold of basal

Request: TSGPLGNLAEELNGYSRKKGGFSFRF-NH2 [QRFP26, human pyroglutamylated RFamide peptide, 26 residues, reference compound]
1.32 x-fold of basal

---

biological target: NPR-11 (Caenorhabditis elegans); construct: expressed in transfected cells; host or cells: HEK293, transient; test: cAMP reporter gene assay, Gi/o (inhibition of forskolin-induced cAMP), NPR-11; assay type: cell-based, C. elegans; conditions: EC50 at NPR-11, full concentration-response curve, inhibition of 1 µM forskolin-induced cAMP, transfected HEK293 (Figure S1, Table S11)
Sequence (Q18179 whole entry): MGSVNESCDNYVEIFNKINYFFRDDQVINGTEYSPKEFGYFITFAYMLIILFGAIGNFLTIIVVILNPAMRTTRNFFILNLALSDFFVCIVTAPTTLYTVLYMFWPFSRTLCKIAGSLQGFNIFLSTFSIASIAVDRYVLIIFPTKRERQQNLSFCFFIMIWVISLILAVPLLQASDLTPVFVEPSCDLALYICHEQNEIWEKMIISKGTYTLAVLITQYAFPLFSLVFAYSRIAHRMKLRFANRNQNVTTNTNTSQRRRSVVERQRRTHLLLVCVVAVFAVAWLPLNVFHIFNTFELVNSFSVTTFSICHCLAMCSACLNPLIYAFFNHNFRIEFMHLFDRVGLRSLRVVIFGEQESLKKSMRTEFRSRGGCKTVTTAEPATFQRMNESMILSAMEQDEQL
Ends that are not written are not given here.
QUANTITY: EC50 (nM)
Express the result in nM but write the number alone.

Given ALNRDSLVASLNNAERLRF-NH2 [FLP-34-2] , state its recorded EC50.
0.7

---

Biological target: NPR-4b (Caenorhabditis elegans, UniProt A0A078BTK0)
Sequence (A0A078BTK0 1-376): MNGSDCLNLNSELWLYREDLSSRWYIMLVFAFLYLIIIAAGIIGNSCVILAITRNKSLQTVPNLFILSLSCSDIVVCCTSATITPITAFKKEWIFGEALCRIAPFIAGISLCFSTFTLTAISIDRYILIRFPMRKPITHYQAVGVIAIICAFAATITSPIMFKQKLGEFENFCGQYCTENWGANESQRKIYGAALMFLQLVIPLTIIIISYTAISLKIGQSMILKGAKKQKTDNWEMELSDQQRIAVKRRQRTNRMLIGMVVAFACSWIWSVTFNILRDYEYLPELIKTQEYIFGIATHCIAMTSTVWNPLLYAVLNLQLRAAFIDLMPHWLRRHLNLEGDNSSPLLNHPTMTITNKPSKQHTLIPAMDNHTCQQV
Test: IP accumulation assay, chimeric GαΔ6qi4myr, NPR-4b
Assay type: cell-based, C. elegans
Conditions: 0.1 µM peptide (Table S8), 1 h, HBSS + 20 mM LiCl; HEK293 receptor + GαΔ6qi4myr; HTRF IP-One; mean of >=3 independent experiments
The following substances are listed with their measured IP accumulation with GαΔ6qi4myr, NPR-4b values.

What value of IP accumulation with GαΔ6qi4myr, NPR-4b on NPR-4b (Caenorhabditis elegans, UniProt A0A078BTK0) does AGSDPNFLRF-NH2 [FLP-1-2, C. elegans FMRFamide-like peptide, C-terminally amidated, synthesized by SPPS] have?
2.48 x-fold of basal

Request: ASPSFIRF-NH2 [FLP-4-2, C. elegans FMRFamide-like peptide, C-terminally amidated, synthesized by SPPS]
4.71 x-fold of basal

Request: NPENDTPFGTMRF-NH2 [FLP-3-4, C. elegans FMRFamide-like peptide, C-terminally amidated, synthesized by SPPS]
4.77 x-fold of basal

Request: APKPKFIRF-NH2 [FLP-5-1, C. elegans FMRFamide-like peptide, C-terminally amidated, synthesized by SPPS]
2.00 x-fold of basal

---

The following substances are listed with their measured cAMP, x-fold of forskolin (mean), NPR-4b values.
target: NPR-4b (Caenorhabditis elegans); assay: cAMP reporter gene assay, Gi/o (inhibition of forskolin-induced cAMP), NPR-4b; type: cell-based, C. elegans; conditions: 0.1 µM peptide; 1 µM forskolin set to 1.00; transiently transfected HEK293 cells; mean of at least three independent experiments

APKPKFIRF-NH2 [FLP-5-1, C. elegans FMRFamide-like peptide, C-terminally amidated, synthesized by SPPS] | 0.73 x-fold of forskolin
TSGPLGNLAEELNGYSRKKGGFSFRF-NH2 [QRFP26, human pyroglutamylated RFamide peptide, 26 residues, reference compound] | 0.89 x-fold of forskolin

Please look at the following substance next.
What value of cAMP, x-fold of forskolin (mean), NPR-4b on NPR-4b (Caenorhabditis elegans) does ASPSFIRF-NH2 [FLP-4-2, C. elegans FMRFamide-like peptide, C-terminally amidated, synthesized by SPPS] have?
0.52 x-fold of forskolin

---

biological target: Y4R (Homo sapiens); construct: expressed in transfected cells; host or cells: HEK293, transient; experiment: IP accumulation assay, chimeric GαΔ6qi4myr, Y4R; assay type: cell-based; settings: 10 µM peptide; chimeric GαΔ6qi4myr co-transfected; transiently transfected HEK293 cells; mean of at least three independent experiments
QUANTITY: IP accumulation, x-fold of basal (mean), Y4R

Guide cases for IP accumulation, x-fold of basal (mean), Y4R, answers given:
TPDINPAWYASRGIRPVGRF-NH2 [PrRP20, human prolactin-releasing peptide, 20 residues, reference compound] | 0.89 x-fold of basal
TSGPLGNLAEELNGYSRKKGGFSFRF-NH2 [QRFP26, human pyroglutamylated RFamide peptide, 26 residues, reference compound] | 1.42 x-fold of basal

Given NPENDTPFGTMRF-NH2 [FLP-3-4, C. elegans FMRFamide-like peptide, C-terminally amidated, synthesized by SPPS] , state its recorded IP accumulation, x-fold of basal (mean), Y4R.
1.29 x-fold of basal

---

target: Y4R (Homo sapiens, UniProt P50391); construct: expressed in transfected cells; host or cells: HEK293, transient; experiment: IP accumulation assay, chimeric GαΔ6qi4myr, Y4R; assay type: cell-based; conditions: 10 µM peptide; chimeric GαΔ6qi4myr co-transfected; transiently transfected HEK293 cells; mean of at least three independent experiments
Sequence (P50391 whole entry): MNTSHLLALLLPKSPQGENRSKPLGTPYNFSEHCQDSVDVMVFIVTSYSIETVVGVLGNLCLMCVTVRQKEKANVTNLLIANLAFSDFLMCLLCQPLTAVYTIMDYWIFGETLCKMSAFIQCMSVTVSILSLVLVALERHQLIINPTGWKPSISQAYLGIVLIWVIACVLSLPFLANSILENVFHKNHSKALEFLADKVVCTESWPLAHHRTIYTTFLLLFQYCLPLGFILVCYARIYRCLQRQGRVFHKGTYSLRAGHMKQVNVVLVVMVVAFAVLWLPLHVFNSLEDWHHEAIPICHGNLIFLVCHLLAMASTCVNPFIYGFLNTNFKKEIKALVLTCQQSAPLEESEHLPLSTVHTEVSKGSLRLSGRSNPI
The following substances are listed with their measured IP accumulation, x-fold of basal (mean), Y4R values.

Guide cases for IP accumulation, x-fold of basal (mean), Y4R, answers given:
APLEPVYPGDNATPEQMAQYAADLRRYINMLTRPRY-NH2 [PP, human pancreatic polypeptide, reference compound] | 4.61 x-fold of basal
AGSDPNFLRF-NH2 [FLP-1-2, C. elegans FMRFamide-like peptide, C-terminally amidated, synthesized by SPPS] | 1.45 x-fold of basal

Given ASPSFIRF-NH2 [FLP-4-2, C. elegans FMRFamide-like peptide, C-terminally amidated, synthesized by SPPS] , state its recorded IP accumulation, x-fold of basal (mean), Y4R.
1.04 x-fold of basal

Request: APKPKFIRF-NH2 [FLP-5-1, C. elegans FMRFamide-like peptide, C-terminally amidated, synthesized by SPPS]
1.28 x-fold of basal
